# Streptococcus pneumoniae: MIC values follow
One number for each entry, in µg/mL.

Structure Notation: CCn1cc(C(=O)O)c(=O)c2cc(N)c(C)nc21
Unit Tag: µg/mL
Data Value: 50
//
Structure Notation: CCn1cc(C(=O)O)c(=O)c2cc([N+](=O)[O-])ccc21
Unit Tag: µg/mL
Data Value: 100
//
Structure Notation: CCn1cc(C(=O)O)c(=O)c2cc(F)c(N3CCN(CCN)CC3)cc21
Unit Tag: µg/mL
Data Value: 50
//
Structure Notation: CCn1cc(C(=O)O)c(=O)c2cc(F)c(SCCN)cc21
Unit Tag: µg/mL
Data Value: 25
//
Structure Notation: CCn1cc(C(=O)O)c(=O)c2cc(F)c(Cl)cc21
Unit Tag: µg/mL
Data Value: 100
//
Structure Notation: CCn1cc(C(=O)O)c(=O)c2cc(F)c(N3CCN(CCN)CC3)nc21
Unit Tag: µg/mL
Data Value: 12.5

# batch: return MIC for each of the 5 molecules below
1. CCn1cc(C(=O)O)c(=O)c2cc(F)c(-n3cccc3)cc21
2. CCn1cc(C(=O)O)c(=O)c2cc(F)c(N3CCSC3)cc21
3. CCn1cc(C(=O)O)c(=O)c2c(N)nc(N3CCCC3)nc21
4. COn1cc(C(=O)O)c(=O)c2cc3c(cc21)OCO3
5. CCn1cc(C(=O)O)c(=O)c2ccc(/C=N/O)nc21

Result:
1: 12.5; 2: 12.5; 3: 25; 4: 100; 5: 100
